Tested on: A549
assay_remarks: Anticancer activity against human A549 cells assessed as inhibition of cell growth after 72 hrs by MTT or MTS assay
Assay type: functional, cell-based
experimental_parameters: A549, 72 h
measured_parameter: IC50 (µM)
Respond with the bare value in µM.

Value of IC50 reported for the compound `O=[N+]([O-])c1ccc(O/N=[N+](\[O-])N2CCN(CCCN3CCN(/[N+]([O-])=N/Oc4ccc([N+](=O)[O-])cc4[N+](=O)[O-])CC3)CC2)c([N+](=O)[O-])c1` is 18.8

Value of IC50 reported for the compound `O=[N+]([O-])c1ccc(O/N=[N+](\[O-])N2CCN(CCN3CCN(/[N+]([O-])=N/Oc4ccc([N+](=O)[O-])cc4[N+](=O)[O-])CC3)CC2)c([N+](=O)[O-])c1` is 17.1

Value of IC50 reported for the compound `CCOC(=O)N1CCN(/[N+]([O-])=N/Oc2ccc([N+](=O)[O-])cc2[N+](=O)[O-])CC1` is 2.11
